Tested on: HeLa cells
Experiment description: Secondary assay: cell proliferation WST-1, HeLa
Format: cell-based
Measurement conditions: Homo sapiens, 48 h, read-out: Cell Proliferation Inhibition WST-1 (IC50 unless otherwise specified) HeLa
Items are presented alongside their recorded IC50.

{"Compound": "O=C(CCCCCCNC(=O)c1ccc2ccccc2c1)NO", "Relation symbol": "=", "IC50 (µM)": 0.36}
{"Compound": "CC(/C=C/C(=O)Nc1cccc(/C=C/C(=O)NO)c1)=C\\c1ccccc1", "Relation symbol": "=", "IC50 (µM)": 43}
{"Compound": "O=C(/C=C/c1ccc(Cl)cc1F)NCCCCCC(=O)NO", "Relation symbol": "=", "IC50 (µM)": 6.8}
{"Compound": "CC(/C=C/C(=O)NCCCCCC(=O)NO)=C\\c1ccccc1", "Relation symbol": "=", "IC50 (µM)": 3.8}
{"Compound": "O=C(CCCCCCC(=O)NC/C=C/c1ccccc1)NO", "Relation symbol": "=", "IC50 (µM)": 7.4}
{"Compound": "O=C(/C=C/C=C/c1ccccc1)NCCCCCC(=O)NO", "Relation symbol": "=", "IC50 (µM)": 5.7}
{"Compound": "O=C(CCCCCNC(=O)c1nc2ccccc2[nH]1)NO", "Relation symbol": "=", "IC50 (µM)": 5.2}
{"Compound": "CC(=C\\c1ccccc1)/C=C(\\C)C(=O)NCCCCCC(=O)NO", "Relation symbol": "=", "IC50 (µM)": 24}
{"Compound": "O=C(CCCCCNC(=O)C(c1ccccc1)c1ccccc1)NO", "Relation symbol": "=", "IC50 (µM)": 60}
{"Compound": "O=C(/C=C/c1ccc(NC(=O)Cc2cccc3ccccc23)cc1)NO", "Relation symbol": "<", "IC50 (µM)": 0.31}
{"Compound": "O=C(/C=C/C=C/c1ccccc1)NC[C@H]1CC[C@H](C(=O)NO)CC1", "Relation symbol": "=", "IC50 (µM)": 10}
{"Compound": "CC(/C=C/C(=O)NO)=C\\[C@@H](C)C(=O)c1ccc(N(C)C)cc1 [TSA, trichostatin A, reference compound]", "Relation symbol": "=", "IC50 (µM)": 0.35}
{"Compound": "O=C(/C=C/c1ccc2ccccc2c1)NCCCCCC(=O)NO", "Relation symbol": "=", "IC50 (µM)": 18.3}
{"Compound": "O=C(CCCCCNC(=O)[C@H](Cc1c[nH]c2ccccc12)NC(=O)CCCc1ccccc1)NO", "Relation symbol": "=", "IC50 (µM)": 13}
{"Compound": "O=C(CCCCCCC(=O)NCCc1c[nH]c2ccccc12)NO", "Relation symbol": "=", "IC50 (µM)": 6}
{"Compound": "O=C(CCCCCCC(=O)NCC(c1ccccc1)c1ccccc1)NO", "Relation symbol": "=", "IC50 (µM)": 11}

----------
Where a name gives a salt, the structure may show the parent alone.
Items are presented alongside their recorded melting point.
Readout: melting point

{"Compound": "O=C(CCCCCNC(=O)Cc1csc2ccccc12)NO", "Test result": "113 to 115 °C"}
{"Compound": "O=C(/C=C/c1ccncc1)NCCCCCC(=O)NO (as salt: oxalate)", "Test result": "168 to 170 °C"}
{"Compound": "O=C(/C=C/c1cccc(NC(=O)/C=C/c2ccc3c(c2)OCO3)c1)NO", "Test result": "128 °C"}
{"Compound": "O=C(/C=C/c1cccc(OC(F)(F)F)c1)NCCCCCC(=O)NO", "Test result": "109 to 111 °C"}
{"Compound": "O=C(CCCCCCC(=O)NCCc1c[nH]c2ccccc12)NO", "Test result": "118.5 to 120 °C"}
{"Compound": "CC(/C=C/C(=O)Nc1cccc(/C=C/C(=O)NO)c1)=C\\c1ccccc1", "Test result": "145 to 148 °C"}
{"Compound": "O=C(/C=C\\C=C\\c1ccc(Cl)cc1)NCCCCCC(=O)NO", "Test result": "158 to 160 °C"}
{"Compound": "O=C(CCCCCNC(=O)c1ccc(Br)cc1)NO", "Test result": "164 to 166 °C"}
{"Compound": "O=C(CCCCCCC(=O)NC/C=C/c1ccccc1)NO", "Test result": "133 to 133.5 °C"}
{"Compound": "CC(C)c1ccc(C(=O)NCCCCCC(=O)NO)cc1", "Test result": "127.5 to 128 °C"}

----------
Items are presented alongside their recorded IC50.
Tested on: human HDAC2 (Homo sapiens, UniProt Q92769)
Construct: Full length human HDAC2 was subcloned; Flag (C); His6 (from pAcHLT-A vector; purified on Ni-NTA) (N)
Sequence (Q92769 whole entry): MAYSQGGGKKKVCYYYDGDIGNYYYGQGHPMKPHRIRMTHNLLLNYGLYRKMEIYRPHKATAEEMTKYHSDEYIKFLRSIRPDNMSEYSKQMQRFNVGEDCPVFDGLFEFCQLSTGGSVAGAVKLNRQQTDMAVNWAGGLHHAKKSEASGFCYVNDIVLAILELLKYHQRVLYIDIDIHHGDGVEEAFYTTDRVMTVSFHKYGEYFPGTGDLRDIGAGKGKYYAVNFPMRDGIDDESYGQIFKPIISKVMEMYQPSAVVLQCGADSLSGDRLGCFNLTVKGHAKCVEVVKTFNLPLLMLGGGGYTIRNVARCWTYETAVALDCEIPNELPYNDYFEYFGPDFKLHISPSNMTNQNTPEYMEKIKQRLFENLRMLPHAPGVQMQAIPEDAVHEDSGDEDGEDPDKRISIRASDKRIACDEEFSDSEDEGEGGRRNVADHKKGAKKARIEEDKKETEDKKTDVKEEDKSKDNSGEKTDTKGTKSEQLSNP
Experiment description: Primary assay: deacetylase activity, recombinantly produced HDAC2
Measurement conditions: recombinant HDAC2; read-out: HDAC Inhibition (IC50 unless otherwise specified) HDAC2

{"Smiles string": "O=C(/C=C/C=C/c1ccccc1)NC[C@H]1CC[C@H](C(=O)NO)CC1", "IC50 (nM)": 967}
{"Smiles string": "O=C(/C=C/C=C/c1ccccc1)NCCCCCCCC(=O)NO", "IC50 (nM)": 50}
{"Smiles string": "O=C(/C=C/C=C/c1ccc(Cl)cc1)NCCCCCC(=O)NO", "IC50 (nM)": 75}
{"Smiles string": "COc1ccc(C(=O)NCCCCCC(=O)NO)cc1", "IC50 (nM)": 312}
{"Smiles string": "CC(/C=C/C(=O)NCCCC(=O)NO)=C\\c1ccccc1", "IC50 (nM)": 31000}
{"Smiles string": "CC(/C=C/C(=O)NCCCCCC(=O)NO)=C\\c1ccccc1", "IC50 (nM)": 38}
{"Smiles string": "CN(C)c1ccc(/C=C/C=C/C(=O)NCCCC(=O)NO)cc1", "IC50 (nM)": 28000}
{"Smiles string": "O=C(/C=C/C=C/c1ccccc1)NCCCCCC(=O)NO", "IC50 (nM)": 47}
{"Smiles string": "CN(C)c1ccc(C(=O)NCCCCCC(=O)NO)c2ccccc12", "IC50 (nM)": 480}
{"Smiles string": "O=C(/C=C\\C=C\\c1ccc(Cl)cc1)NCCCCCC(=O)NO", "IC50 (nM)": 63}

----------
Readout: melting point

{"Molecule": "O=C(/C=C/c1ccc2c(c1)OCO2)NCCCCCC(=O)NO", "Test result": "191 to 193 °C"}
{"Molecule": "O=C(CCCCCCC(=O)NC(c1ccccc1)c1ccccc1)NO [PX117417, N^1-benzhydryl-N^8-hydroxyoctanediamide]", "Test result": "155 to 156.5 °C"}
{"Molecule": "O=C(/C=C/c1cccc2ccccc12)NCCCCCC(=O)NO", "Test result": "135 to 137 °C"}
{"Molecule": "O=C(CCCCCNC(=O)c1ccc(I)cc1)NO", "Test result": "168 to 169 °C"}
{"Molecule": "O=C(/C=C/c1ccco1)NCCCCCC(=O)NO", "Test result": "151 to 152.5 °C"}

----------
System: HeLa cells
Experiment description: Secondary assay: cell proliferation WST-1, HeLa
Format: cell-based
Measurement conditions: Homo sapiens, 48 h, read-out: Cell Proliferation Inhibition WST-1 (IC50 unless otherwise specified) HeLa

{"Compound": "O=C(/C=C/C#Cc1ccccc1)NCCCCCC(=O)NO [PX106525]", "IC50": "4.7 µM"}
{"Compound": "CN(C)c1ccc(/C=C/C=C/C(=O)NCCCCCC(=O)NO)cc1 [PX106527]", "IC50": "1 µM"}
{"Compound": "COc1ccc(C(=O)NCCCCCC(=O)NO)cc1 [PX089276]", "IC50": "6.3 µM"}
{"Compound": "C/C(=C\\C=C\\c1ccccc1)C(=O)NCCCCCC(=O)NO [PX106520]", "IC50": "8.4 µM"}
{"Compound": "O=C(/C=C/c1c[nH]c2ccccc12)NCCCCCC(=O)NO [PX116220]", "IC50": "3.7 µM"}
{"Compound": "O=C(CCCCCCC(=O)Nc1ccccc1)NO [SAHA, Suberoylanilide Hydroxamic Acid, reference compound]", "IC50": "2.2 µM"}
{"Compound": "O=C(/C=C/C=C/c1ccc(-c2ccccc2)cc1)NCCCCCC(=O)NO [PX105848]", "IC50": "4.3 µM"}
{"Compound": "O=C(CCCCCCC(=O)NCC(O)c1ccccc1)NO (centres unmarked) [PX116226]", "IC50": "4.1 µM"}
{"Compound": "O=C(CCCCCCC(=O)NCCc1nc2ccccc2[nH]1)NO [PX116241]", "IC50": "56 µM"}
{"Compound": "O=C(/C=C/c1ccco1)NCCCCCC(=O)NO [PX106491]", "IC50": "0.52 µM"}
{"Compound": "O=C(CCCCCC(=O)NCCc1c[nH]c2ccccc12)NO [PX117408]", "IC50": "11 µM"}
{"Compound": "O=C(/C=C/C=C/c1ccc(Cl)cc1)NCCCCCC(=O)NO [PX105850]", "IC50": "6.3 µM"}
{"Compound": "O=C(C=C1c2ccccc2-c2ccccc21)NCCCCCC(=O)NO [PX117456]", "IC50": "0.65 µM"}
{"Compound": "O=C(/C=C/C=C/c1ccccc1)NCCCCCCC(=O)NO [PX106518]", "IC50": "0.65 µM"}
{"Compound": "O=C(CCCCCNC(=O)c1cccc2ccccc12)NO [PX105828]", "IC50": "17 µM"}
{"Compound": "CN(CCCCCC(=O)NO)C(=O)/C=C/C=C/c1ccccc1 [PX116234]", "IC50": "3.4 µM"}
{"Compound": "O=C(CCCCCNC(=O)[C@H](Cc1c[nH]c2ccccc12)NC(=O)Cc1ccc2ccccc2c1)NO [PX117406]", "IC50": "6.9 µM"}
{"Compound": "CC(/C=C/c1ccccc1)=C\\C(=O)NCCCCCC(=O)NO [PX106526]", "IC50": "2.1 µM"}
{"Compound": "O=C(CCCCCNC(=O)CC/C=C/c1ccccc1)NO [PX117797]", "IC50": "21 µM"}
{"Compound": "O=C(/C=C/c1ccccc1)NCCCCCC(=O)NO [PX106517]", "IC50": "0.47 µM"}

src = patent US7569724B2
